Assay: BSK_hDFCGF_Proliferation: Cell Proliferation Assessment in the BioMAP Diversity Plus: hDFCGF Assay (AID 2283059);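 further: curves fitted for both rise and fall of signal versus DMSO baseline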
Conditions: primary human foreskin fibroblasts
The source made the active and inactive calls. How the source made its calls: active means hit-call score of the fitted dose curve at least 0.9, where 1 is the maximum; inactive means score below 0.9.
readout: AC50

| molecule | readout | reported |
| --- | --- | --- |
| O=S(=O)(OCC(F)F)C(F)(F)F | AC50 | inactive |
| CS(C)(=O)=O | AC50 | inactive |
| FC(F)(F)C(F)(F)C(F)(F)C(F)(F)CCI | AC50 | inactive |
| C=CC(F)(F)C(F)(F)C(F)(F)C(F)(F)C(F)(F)C(F)(F)C(F)(F)C(F)(F)F | AC50 | inactive |
| FC(F)(F)C(F)(F)C(F)(F)C(F)(F)C(F)(F)C(F)(F)CC1CO1 (stereo unspecified) | AC50 | inactive |
| CCCCCCCCCCCCCCCC[N+](C)(C)Cc1ccccc1 | AC50 | 0.59 µM (active) |
